Entries and their melting point

Cc1cccc(C(N)=O)n1 : 117 to 119 °C

Query `CCN(CCC(N)=S)C(C)=O` yields melting point of 56 to 58 °C

# compound `NC(=O)CO` ; its melting point = 124 to 126 °C

For record `Cn1ccnc1Sc1ccc(N)cc1` the listed melting point is 117 to 119 °C

Recorded melting point (compound `Nc1nnc(-c2ccsc2)s1` ): 211 to 213 °C

# melting point of `Nc1[nH]ncc1[N+](=O)[O-]` = 237 to 239 °C

----------
Property label: melting point

Short answer for `CC(C)CC(=O)NCCc1ccc(S(=O)(=O)Cl)s1` : melting point was 79 to 81 °C

// recorded melting point for `O=S(=O)(Cl)Cc1cc(Cl)ccc1F` : 45 to 47 °C
